Assay: Human liver microsome assay (metabolic stability)
Format: in vitro ADME
Settings: pH 7.4; human liver microsomes 0.2 mg/mL, 1 μM test drug, NADPH, 37° C.; read-out: Intrinsic clearance (Clint, mL/min/kg)

compound	resultUnit	CLint scaled at 1 μM
CNC1(c2ccccc2)CCc2ncsc2C1 (racemic) [rac-A13]	mL/min/kg	15.2
C[C@]12CC[C@H]3[C@@H](CCC4=CC(=O)CC[C@@]43C)[C@@H]1CC[C@@H]2O [Testosterone, testosterone, reference compound]	mL/min/kg	265
NC1(c2ccccc2)CCCc2sccc21 (racemic) [rac-A16]	mL/min/kg	95.5
NC1(c2ccccc2)CCc2ccsc2C1 (racemic) [rac-A19]	mL/min/kg	50.6
c1ccc(C2(N3CCCCC3)CCc3ncsc3C2)cc1 (racemic) [rac-A71]	mL/min/kg	13.8
CNC1(c2ccccc2)CCCc2sc(N)nc21 (racemic) [rac-A38]	mL/min/kg	41.3
c1ccc(C2(N3CCCC3)CCc3oncc3C2)cc1 (racemic) [rac-A55]	mL/min/kg	65.8
NC1(c2ccccc2)CCCc2scnc21 (racemic) [rac-A32]	mL/min/kg	20.7
Nc1nc2c(s1)CC(c1cccc(Cl)c1)(N1CCCCC1)CC2 (racemic) [rac-A49]	mL/min/kg	34.7
